Assay read-out pIC50; system under study: Neprilysin (Homo sapiens, UniProt P08473).
Sequence (P08473 whole entry): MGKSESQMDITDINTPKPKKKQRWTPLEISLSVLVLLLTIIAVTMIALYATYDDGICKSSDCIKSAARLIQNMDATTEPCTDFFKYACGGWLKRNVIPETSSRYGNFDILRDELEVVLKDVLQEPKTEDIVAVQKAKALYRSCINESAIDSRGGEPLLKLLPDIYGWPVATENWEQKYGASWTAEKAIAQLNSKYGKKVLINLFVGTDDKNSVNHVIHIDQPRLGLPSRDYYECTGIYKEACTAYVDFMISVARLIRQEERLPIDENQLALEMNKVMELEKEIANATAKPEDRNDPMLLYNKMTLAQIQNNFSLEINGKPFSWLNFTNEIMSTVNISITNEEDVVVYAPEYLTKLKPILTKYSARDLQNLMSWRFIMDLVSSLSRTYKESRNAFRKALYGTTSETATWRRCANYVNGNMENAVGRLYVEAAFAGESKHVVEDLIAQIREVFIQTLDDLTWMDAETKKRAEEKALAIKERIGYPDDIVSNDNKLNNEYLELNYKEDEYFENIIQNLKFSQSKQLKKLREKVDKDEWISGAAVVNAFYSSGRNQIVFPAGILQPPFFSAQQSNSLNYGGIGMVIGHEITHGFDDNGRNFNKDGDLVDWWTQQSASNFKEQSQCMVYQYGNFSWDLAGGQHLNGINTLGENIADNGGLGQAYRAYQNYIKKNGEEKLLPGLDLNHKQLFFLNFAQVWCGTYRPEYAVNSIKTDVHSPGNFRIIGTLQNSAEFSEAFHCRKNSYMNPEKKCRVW
pIC50 field: float, defined as -log10 of concentration (mol/L).

Looking for the measured pIC50 of "O=C1N[C@H](C(=O)O)CCCCCCc2ccccc2C[C@H]1CS" , can you help? 6.65

Can you handle "O=C1N[C@H](C(=O)O)CCCCCc2cccc(c2)C[C@H]1CS" next? 6.00

Can you handle "O=C1N[C@H](C(=O)O)CCCCCCc2ccccc2C[C@@H]1CS" next? 7.57

---

target: Angiotensin-converting enzyme (Homo sapiens, UniProt P12821)
Sequence (P12821 whole entry): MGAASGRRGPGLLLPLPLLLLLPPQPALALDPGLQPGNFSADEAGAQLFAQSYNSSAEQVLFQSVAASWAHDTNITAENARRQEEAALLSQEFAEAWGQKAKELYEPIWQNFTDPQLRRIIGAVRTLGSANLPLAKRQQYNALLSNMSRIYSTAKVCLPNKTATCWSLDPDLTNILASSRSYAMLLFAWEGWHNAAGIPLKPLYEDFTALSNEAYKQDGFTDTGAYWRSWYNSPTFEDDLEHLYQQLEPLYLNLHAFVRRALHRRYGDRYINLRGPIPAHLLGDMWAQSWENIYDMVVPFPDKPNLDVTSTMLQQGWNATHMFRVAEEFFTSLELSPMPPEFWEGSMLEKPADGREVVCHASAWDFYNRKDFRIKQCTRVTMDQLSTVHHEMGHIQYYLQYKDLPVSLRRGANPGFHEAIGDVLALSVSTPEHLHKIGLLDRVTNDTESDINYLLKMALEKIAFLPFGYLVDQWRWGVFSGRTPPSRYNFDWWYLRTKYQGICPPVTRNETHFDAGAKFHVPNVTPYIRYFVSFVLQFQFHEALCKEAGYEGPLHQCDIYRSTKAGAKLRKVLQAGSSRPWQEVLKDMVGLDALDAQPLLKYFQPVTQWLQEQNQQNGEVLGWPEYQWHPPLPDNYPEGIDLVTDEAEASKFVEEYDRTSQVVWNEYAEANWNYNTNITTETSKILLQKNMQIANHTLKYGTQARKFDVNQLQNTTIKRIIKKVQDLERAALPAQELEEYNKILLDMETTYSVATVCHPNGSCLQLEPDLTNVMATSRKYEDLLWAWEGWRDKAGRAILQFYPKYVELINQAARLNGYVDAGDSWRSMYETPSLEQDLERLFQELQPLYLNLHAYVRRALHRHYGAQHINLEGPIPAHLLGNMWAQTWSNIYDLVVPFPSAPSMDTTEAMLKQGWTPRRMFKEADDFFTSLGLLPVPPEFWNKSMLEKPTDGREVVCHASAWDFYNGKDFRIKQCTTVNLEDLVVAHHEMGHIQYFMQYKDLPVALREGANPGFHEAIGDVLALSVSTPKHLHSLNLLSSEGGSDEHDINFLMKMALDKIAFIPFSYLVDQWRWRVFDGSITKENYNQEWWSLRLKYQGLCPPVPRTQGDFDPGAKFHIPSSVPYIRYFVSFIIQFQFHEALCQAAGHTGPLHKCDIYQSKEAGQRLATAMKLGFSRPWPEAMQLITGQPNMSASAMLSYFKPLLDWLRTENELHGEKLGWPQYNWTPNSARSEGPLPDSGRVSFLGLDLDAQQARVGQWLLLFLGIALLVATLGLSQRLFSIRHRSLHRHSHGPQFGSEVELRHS
The following compounds are listed with their measured pIC50 values.
pIC50 field: float, defined as -log10 of concentration (mol/L).

Recorded results for 2 compounds are shown here.
[[record]]
mol_smiles = "O=C1N[C@H](C(=O)O)CCCCCCc2cccc(c2)C[C@@H]1CS"
observed = 6.76

[[record]]
mol_smiles = "O=C1N[C@H](C(=O)O)CCCCCc2cccc(c2)C[C@H]1CS"
observed = 5.85


// switching to the query compound
Looking for the measured pIC50 of "O=C1N[C@H](C(=O)O)CCCCCc2ccccc2C[C@@H]1CS" , can you help? 5.10
